# Test system: foxtail, giant
# Assay Details: Test A preemergence
# Assay type: in vivo, Setaria faberi
# Setup Conditions: 125 g ai/ha, 0 to 100 scale
Consider the following compounds and their measured Plant response rating, Foxtail, Giant readings.
Output: the number by itself.

// known answers, use as guide
Need Plant response rating, Foxtail, Giant of COc1cc(C(=O)N2C[C@H](C)Oc3c(Cl)cccc32)cc(-n2cncn2)c1 , thanks.
100

Next record, please: Cc1cccc2c1OC(C(F)(F)F)CN2C(=O)c1ccnc(-n2cncn2)c1 (stereo not shown)
100

Next record, please: CC(C)c1ncn(-c2ccc(OCC(F)(F)F)c(C(=O)N3C[C@H](C)Oc4c(Cl)cccc43)c2)n1
90

// next entry
Need Plant response rating, Foxtail, Giant of CC(C)c1ncn(-c2ccc(OC(F)F)c(C(=O)N3C[C@H](C)Oc4c(Cl)cccc43)c2)n1 , thanks.
100
